Where these numbers come from: PubChem BioAssay

assay: modulators of CIT2-GFP expression in yeast, confirmation, S. cerevisiae, GFP fusion, cherry picks, mother/daughter gates (AID 2274); conditions: S. cerevisiae CIT2-GFP strain, flow cytometry, 3 h; measured here: daughter cell gate; at 10 µM; stronger effect = higher value
observationType: GFP response, % of DMSO

Req: // GFP response, % of DMSO lookup, key: CC(=O)Oc1oc(-c2ccccc2)nc1C=Nc1ccccc1
Resp: 92.3%

Req: Field request: GFP response, % of DMSO | item: CCc1cc(=O)oc2c(CN3CCCC3)c(O)c(Cl)cc12
Resp: 105%

Req: Query (compound): CCOC(=O)C(C(=O)OCC)C(C(=O)OCC)N1CCOCC1 (stereo unspecified) ; field requested: GFP response, % of DMSO
Resp: 105%

Req: Using the record for CN1CCN(CCCCOc2ccccc2C=O)CC1 , report its GFP response, % of DMSO.
Resp: 94.8%

Req: Given the entry CCOC(=O)C1(Cc2ccccc2Cl)CCN(C(=O)CCn2ccnc2C)CC1 , report its measured GFP response, % of DMSO.
Resp: 98.3%

Req: # lookup: GFP response, % of DMSO of CC(=O)Nc1ccc(-c2csc(NC(=O)c3ccc(C)o3)n2)cc1
Resp: 106%
